Entry source: paper PMC10267556

TESTED TARGET: T1, Spike (BA.4/5) (SARS-CoV-2, Omicron BA.4/5, strain)
T1 construct: source: bought: Sino Biological
EXPERIMENT DESCRIPTION: SPR
ASSAY SETUP: both partners purified
MEASURED PROPERTY: Kd (nM)
Your answer should be a plain number; it is taken to be in nM.

Request: Need Kd, item TH236 (antibody, V domains shown, IgG1 (D2:p3)) VH: QVQLVESGGGLVKPGGSLRLSCAASGFMISDSYMNWIRQPPGKGLEWVSYISSNGYAIYYGDSVKGRFTISRDNAKNFLYLQMNSLRVEDTAVYYCAREQPGGYYDSSGYRLDPWGQGILVTVSS VL: QSALTQPASVSGSPGQSITISCTGTSSDVGGYNYVSWYQQHPGKAPKLMIYDVSNRPSGVSNRFSGSKSGNTASLTISGLQAEDEADYYCSSYTSSSTLYVFGTGTKVTVL
Response: 0.602
